Where these numbers come from: a collection of fitness landscapes (doi:10.1038/s41467-024-54723-y)

assayed-target: TetR (class B, Tn10) (UniProt P04483)
Sequence (P04483 whole entry): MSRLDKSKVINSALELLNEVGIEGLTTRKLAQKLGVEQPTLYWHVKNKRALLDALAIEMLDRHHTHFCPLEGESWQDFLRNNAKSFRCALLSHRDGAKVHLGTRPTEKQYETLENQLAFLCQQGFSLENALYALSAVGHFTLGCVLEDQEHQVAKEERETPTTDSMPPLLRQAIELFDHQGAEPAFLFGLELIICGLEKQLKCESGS
procedure-summary: TetR repression strength (sort-seq, GFP reporter) (relative to tetO2 = 1); higher = stronger repression
experimental-parameters: E. coli
Over roughly 18,000 sequences, “TetR repression strength (sort-seq, GFP reporter)” has its median near 0.23; the highest 2% begin near 0.68. This excerpt belongs to a sample that is enriched for the highest values.
measured-quantity: TetR repression strength

Sample answers from the record:
• TCCCGATGAGTTAGAGAGA = 0.749
• TCCCGGTAAGTAGGCGAGA = 1.05
• TCCCCTCTAGTGTTTGAGA = 0.945
• TCCCATAAAGTGACGGAGA = 0.305
• TCCCGTAAAGTGTTAGAGA = 0.696

Respectfully, I request TetR repression strength for each entry included below.
1. TCCCGGGTAGTGGTGGAGA
2. TCCCTAGCAGTTGTAGAGA

a:
0.277
0.509

Respectfully, I request TetR repression strength for each entry included below.
1. TCCCACGTAGTGCAAGAGA
2. TCCCGTATAGTGGGGGAGA

a:
[0.62, 0.0618]

Respectfully, I request TetR repression strength for each entry included below.
1. TCCCGTCTAGTGTTTGAGA
2. TCCCGGATAGTACTAGAGA
3. TCCCGGGCAGTGGGCGAGA
4. TCCCGATGAGTTAGGGAGA
5. TCCCAATCAGTTGAAGAGA
6. TCCCGTGTAGTGTTAGAGA

a:
[0.371, 0.291, 0.253, 0.296, 0.279, 0.24]

Respectfully, I request TetR repression strength for each entry included below.
1. TCCCAGGCAGTAGGCGAGA
2. TCCCCTCGAGTGTGTGAGA

a:
0.205
0.125

q: Given the entry TCCCTACCAGTGATCGAGA , report its measured TetR repression strength.
a: 0.593

###

Consider the following sequences; for each one, report its TetR repression strength.
assayed-target: TetR (class B, Tn10) (UniProt P04483)
procedure-summary: TetR repression strength (sort-seq, GFP reporter) (relative to tetO2 = 1); higher = stronger repression
experimental-parameters: E. coli
Over roughly 18,000 sequences, “TetR repression strength (sort-seq, GFP reporter)” has its median near 0.23; the highest 2% begin near 0.68. The list comes from a sample in which the highest values are over-represented; it also holds close analogues and randomly drawn sequences.
One number for each entry.

Sample answers from the record:
- TCCCACTCAGTGATAGAGA: 0.701
- TCCCGACTAGTTAGCGAGA: 0.682

q: Given the entry TCCCCTCAAGTTAGGGAGA , report its measured TetR repression strength.
a: 0.304

###

Consider the following sequences; for each one, report its TetR repression strength.
assayed-target: TetR (class B, Tn10)
procedure-summary: TetR repression strength (sort-seq, GFP reporter) (relative to tetO2 = 1); higher = stronger repression
experimental-parameters: E. coli
In all, about 18,000 sequences were measured (“TetR repression strength (sort-seq, GFP reporter)”: median about 0.23, highest 2% from about 0.68 on). The entries come from a sample that favours the highest values as a whole.

* TCCCGAGAAGTCCATGAGA | 0.207
* TCCCGAGTAGTGAGGGAGA | 0.242
* TCCCTATAAGTTACTGAGA | 0.711

Respectfully, I request TetR repression strength for each entry included below.
1. TCCCTTCAAGTGCCCGAGA
2. TCCCTGTTAGTTAGAGAGA
3. TCCCTTTTAGTGAATGAGA
4. TCCCGAGTAGTGGAGGAGA
5. TCCCCACTAGTTAAGGAGA

a:
1: 0.415; 2: 0.452; 3: 0.889; 4: 0.155; 5: 0.225

Respectfully, I request TetR repression strength for each entry included below.
1. TCCCTAGTAGTACTGGAGA
2. TCCCGAAGAGTCTTAGAGA
3. TCCCGCGGAGTGGCGGAGA
4. TCCCCGAAAGTCATAGAGA

a:
1. 0.176
2. 0.279
3. 0.119
4. 0.452

Respectfully, I request TetR repression strength for each entry included below.
1. TCCCTGCGAGTGATAGAGA
2. TCCCTGGTAGTGAGAGAGA

a:
1. 0.618
2. 0.326

Respectfully, I request TetR repression strength for each entry included below.
1. TCCCGAGTAGTTAACGAGA
2. TCCCTATCAGTTACGGAGA
3. TCCCTTTGAGTGAATGAGA
4. TCCCGTAGAGTGCAAGAGA
5. TCCCCCTGAGTTTATGAGA
6. TCCCTGGTAGTTAGAGAGA
7. TCCCGAGTAGTTAAGGAGA

a:
0.857
0.484
0.472
0.396
0.265
0.821
0.21

Respectfully, I request TetR repression strength for each entry included below.
1. TCCCGGGAAGTTACAGAGA
2. TCCCTTAAAGTGTTGGAGA
3. TCCCCAGGAGTGATAGAGA
4. TCCCTGTGAGTTGGGGAGA
5. TCCCTGCTAGTAGGAGAGA

a:
1: 0.0346; 2: 0.334; 3: 0.339; 4: 0.189; 5: 0.415

Respectfully, I request TetR repression strength for each entry included below.
1. TCCCGGATAGTGACCGAGA
2. TCCCGGGGAGTTAATGAGA
3. TCCCCGTTAGTTAAGGAGA
4. TCCCTATCAGTTACTGAGA
5. TCCCTTATAGTGGGGGAGA
6. TCCCTTTTAGTGAGAGAGA
7. TCCCGCATAGTACCTGAGA

a:
[0.131, 0.944, 0.149, 0.698, 0.161, 0.425, 0.562]

Respectfully, I request TetR repression strength for each entry included below.
1. TCCCAGGGAGTGTTAGAGA
2. TCCCACCGAGTGATCGAGA
3. TCCCTCTCAGTTACTGAGA
4. TCCCGAGGAGTTAACGAGA
5. TCCCATGGAGTGATAGAGA
6. TCCCATGGAGTTCGAGAGA
7. TCCCTTCAAGTGCCGGAGA
8. TCCCTGGTAGTGACCGAGA

a:
0.263
0.405
0.703
0.535
0.548
0.0732
1.13
0.116

###

assayed-target: TetR (class B, Tn10)
procedure-summary: TetR repression strength (sort-seq, GFP reporter) (relative to tetO2 = 1); higher = stronger repression
experimental-parameters: E. coli
Whole data set: some 18,000 sequences, median “TetR repression strength (sort-seq, GFP reporter)” near 0.23, cut for the highest 2% near 0.68. The sample as a whole holds a higher share of the highest values than the screen did.
measured-quantity: TetR repression strength
One number for each entry.

- TCCCTGAAAGTATACGAGA: 0.205
- TCCCTGTCAGTACAGGAGA: 0.118
- TCCCTCTAAGTTGATGAGA: 0.795

Respectfully, I request TetR repression strength for each entry included below.
1. TCCCTATCAGTAGGCGAGA
2. TCCCCTTAAGTCGAGGAGA
3. TCCCGGACAGTGAGAGAGA
4. TCCCGGAGAGTTGAGGAGA
5. TCCCGGACAGTGTGAGAGA
6. TCCCTAGAAGTTTAAGAGA
7. TCCCCGGCAGTGGTGGAGA
8. TCCCCGCAAGTTGTTGAGA

a:
1. 0.414
2. 0.157
3. 0.246
4. 0.193
5. 1.2
6. 0.0122
7. 0.25
8. 0.198

Respectfully, I request TetR repression strength for each entry included below.
1. TCCCGGTCAGTGATCGAGA
2. TCCCTGAAAGTCTGCGAGA
3. TCCCGGACAGTTTGGGAGA
4. TCCCCAGGAGTGTCTGAGA
5. TCCCTAACAGTGAGTGAGA
6. TCCCTATCAGTGTGAGAGA

a:
[0.684, 0.134, 0.473, 0.273, 0.514, 0.919]

Respectfully, I request TetR repression strength for each entry included below.
1. TCCCTTACAGTCTACGAGA
2. TCCCTGTGAGTCGTTGAGA

a:
0.405
0.443

Respectfully, I request TetR repression strength for each entry included below.
1. TCCCTTAAAGTCTAAGAGA
2. TCCCCGCCAGTAAAAGAGA
3. TCCCCAGTAGTGGGCGAGA
4. TCCCATACAGTGAGTGAGA

a:
1: 0.539; 2: 0.389; 3: 0.963; 4: 0.176

Respectfully, I request TetR repression strength for each entry included below.
1. TCCCGTCGAGTCAGGGAGA
2. TCCCTATGAGTGTGAGAGA
3. TCCCTTTAAGTGCTGGAGA
4. TCCCTATAAGTGAGTGAGA
5. TCCCGGACAGTAACGGAGA
6. TCCCTGTGAGTTGGTGAGA

a:
1: 0.367; 2: 0.252; 3: 0.3; 4: 0.693; 5: 0.312; 6: 0.656

Respectfully, I request TetR repression strength for each entry included below.
1. TCCCCTTAAGTGTATGAGA
2. TCCCAGGGAGTGGGCGAGA
3. TCCCGTCCAGTCTGAGAGA
4. TCCCACAGAGTAATGGAGA
5. TCCCGCGAAGTAAGCGAGA
6. TCCCCAGGAGTGGGCGAGA
7. TCCCTTACAGTCCACGAGA

a:
[0.348, 0.312, 0.152, 0.108, 0.151, 0.894, 0.808]

Respectfully, I request TetR repression strength for each entry included below.
1. TCCCGAGGAGTGGCTGAGA
2. TCCCTTGCAGTGATCGAGA
3. TCCCAAGGAGTCGGCGAGA
4. TCCCGGGGAGTGGGCGAGA

a:
[0.0686, 0.654, 0.743, 0.225]

Respectfully, I request TetR repression strength for each entry included below.
1. TCCCCACAAGTTCGGGAGA
2. TCCCTATAAGTCAGTGAGA
3. TCCCCGCGAGTAGGGGAGA

a:
1. 0.0657
2. 0.427
3. 0.245
